assay: Kinetic Solubility; type: physicochemical; details: simulated gastric fluid, kinetic from dmso stock; pH = 1; 0.2 to 100 μM; BD Gentest Solubility Scanner; read-out: Kinetic Solubility at pH = 1

[
  {
    "smilesString": "Cc1c(C(=O)Nc2ccc(F)cc2)c2n(c1C(=O)C(=O)NC1(c3nncs3)CC1)CCC2",
    "limitQualifier": ">",
    "solubility kinetic (µM)": 100
  },
  {
    "smilesString": "CNC(=O)C1(NC(=O)C(=O)c2c(C)c(C(=O)Nc3ccc(F)c(C#N)c3)c3n2CCC3)CC(F)(F)C1",
    "limitQualifier": "=",
    "solubility kinetic (µM)": 55.7
  },
  {
    "smilesString": "Cc1c(C(=O)Nc2ccc(F)c(F)c2)c2n(c1C(=O)C(=O)NC1(c3nncs3)CC1)CCC2",
    "limitQualifier": "=",
    "solubility kinetic (µM)": 77.7
  },
  {
    "smilesString": "Cc1c(C(=O)Nc2ccc(F)c(F)c2)c2n(c1C(=O)C(=O)NC1(CO)CC(F)(F)C1)CCC2",
    "limitQualifier": "=",
    "solubility kinetic (µM)": 68.7
  }
]

---

experiment: Kinetic Solubility; assay type: physicochemical; conditions: aqueous buffer, kinetic from dmso stock; pH = 7; 0.2 to 100 μM; BD Gentest Solubility Scanner; read-out: Kinetic Solubility at pH = 7
measurementName: solubility kinetic

[
  {
    "compound": "Cc1c(C(=O)Nc2ccc(F)c(C(F)F)c2)c2n(c1C(=O)C(=O)NC1(C(N)=O)CC(F)(F)C1)CCC2 [Example 32]",
    "recordedResult": "89.5 µM"
  },
  {
    "compound": "Cc1c(C(=O)Nc2ccc(F)c(C(F)F)c2)c2n(c1C(=O)C(=O)NC1(c3c[nH]nn3)CC(F)(F)C1)CCC2 [Example 37]",
    "recordedResult": "5.2 µM"
  },
  {
    "compound": "Cc1c(C(=O)Nc2ccc(F)c(C#N)c2)c2n(c1C(=O)C(=O)NC1(c3cn(C)nn3)CC(F)(F)C1)CCC2 [Example 5]",
    "recordedResult": "20.7 µM"
  },
  {
    "compound": "Cc1c(C(=O)Nc2cc(F)c(F)c(F)c2)c2n(c1C(=O)C(=O)NC1(c3cnn[nH]3)CC(F)(F)C1)CCC2 [Example 18]",
    "recordedResult": "52.7 µM"
  }
]

---

test: Kinetic Solubility; assay type: physicochemical; conditions: simulated gastric fluid, kinetic from dmso stock; pH = 1; 0.2 to 100 μM; BD Gentest Solubility Scanner; read-out: Kinetic Solubility at pH = 1
measurementName: solubility kinetic (µM)

[
  {
    "compound": "Cc1c(C(=O)Nc2ccc(F)c(F)c2)c2n(c1C(=O)C(=O)NC1(c3cnn[nH]3)CC(F)(F)C1)C[C@@H]1C[C@H]21 [Example 21]",
    "measurementName": "solubility kinetic",
    "recordedResult": 64.7
  },
  {
    "compound": "Cc1c(C(=O)Nc2ccc(F)cc2)c2n(c1C(=O)C(=O)NC1(c3cnn[nH]3)CC(F)(F)C1)C[C@H]1C[C@@H]21 [Example 14]",
    "measurementName": "solubility kinetic",
    "recordedResult": 57.1
  },
  {
    "compound": "Cc1c(C(=O)Nc2ccc(F)c(C(F)F)c2)c2n(c1C(=O)C(=O)NC1(c3c[nH]nn3)CC(F)(F)C1)CCC2 [Example 37]",
    "measurementName": "solubility kinetic",
    "recordedResult": 7.1
  },
  {
    "compound": "Cc1c(C(=O)Nc2ccc(F)c(F)c2)c2n(c1C(=O)C(=O)NC1(c3cn(C)nn3)CC(F)(F)C1)CCC2 [Example 6]",
    "measurementName": "solubility kinetic",
    "recordedResult": 46.1
  },
  {
    "compound": "Cc1c(C(=O)Nc2ccc(F)c(F)c2)c2n(c1C(=O)C(=O)NC1(c3cnn[nH]3)CC(F)(F)C1)[C@H]1C[C@H]1C2 [Example 23]",
    "measurementName": "solubility kinetic",
    "recordedResult": 62
  },
  {
    "compound": "CNC(=O)C1(NC(=O)C(=O)c2c(C)c(C(=O)Nc3ccc(F)cc3)c3n2CCC3)CC(F)(F)C1 [Example 45]",
    "measurementName": "solubility kinetic",
    "recordedResult": 99.9
  }
]

---

assay: Kinetic Solubility; type: physicochemical; conditions: simulated gastric fluid, kinetic from dmso stock; pH = 1; 0.2 to 100 μM; BD Gentest Solubility Scanner; read-out: Kinetic Solubility at pH = 1
measurementName: log10(solubility kinetic) (log10 of the value in µM)

[
  {
    "compound": "Cc1c(C(=O)Nc2ccc(F)c(F)c2)c2n(c1C(=O)C(=O)NC1(c3c[nH]nn3)CC1)CCC2 [Example 40]",
    "measurementName": "log10(solubility kinetic)",
    "recordedResult": 0.69
  },
  {
    "compound": "Cc1c(C(=O)Nc2ccc(F)c(C(F)F)c2)c2n(c1C(=O)C(=O)NC1(c3c[nH]nn3)CC1)CCC2 [Example 27]",
    "measurementName": "log10(solubility kinetic)",
    "recordedResult": 0.92
  },
  {
    "compound": "Cc1c(C(=O)Nc2ccc(F)c(C(F)F)c2)c2n(c1C(=O)C(=O)NC1(c3nncs3)CC1)CCC2 [Example 31]",
    "measurementName": "log10(solubility kinetic)",
    "recordedResult": 1.36
  },
  {
    "compound": "Cc1c(C(=O)Nc2ccc(F)c(C#N)c2)c2n(c1C(=O)C(=O)NC1(c3nncs3)CC(F)(F)C1)CCC2 [Example 2]",
    "measurementName": "log10(solubility kinetic)",
    "recordedResult": 0.89
  },
  {
    "compound": "Cc1c(C(=O)Nc2ccc(F)c(C(F)F)c2)c2n(c1C(=O)C(=O)NC1(C(N)=O)CC(F)(F)C1)CCC2 [Example 32]",
    "measurementName": "log10(solubility kinetic)",
    "recordedResult": 1.97
  },
  {
    "compound": "Cc1c(C(=O)Nc2ccc(F)c(Cl)c2)c2n(c1C(=O)C(=O)NC1(c3cnn[nH]3)CC(F)(F)C1)CCC2 [Example 16]",
    "measurementName": "log10(solubility kinetic)",
    "recordedResult": 1.22
  },
  {
    "compound": "Cc1c(C(=O)Nc2ccc(F)c(C#N)c2)c2n(c1C(=O)C(=O)NC1(c3cn(C)nn3)CC(F)(F)C1)CCC2 [Example 5]",
    "measurementName": "log10(solubility kinetic)",
    "recordedResult": 1.05
  },
  {
    "compound": "Cc1c(C(=O)Nc2ccc(F)cc2)c2n(c1C(=O)C(=O)NC1(c3cnn[nH]3)CC(F)(F)C1)CCC2 [Example 17]",
    "measurementName": "log10(solubility kinetic)",
    "recordedResult": 1.85
  },
  {
    "compound": "CNC(=O)C1(NC(=O)C(=O)c2c(C)c(C(=O)Nc3ccc(F)c(F)c3)c3n2CCC3)CC(F)(F)C1 [Example 46]",
    "measurementName": "log10(solubility kinetic)",
    "recordedResult": 1.93
  },
  {
    "compound": "Cc1c(C(=O)Nc2ccc(F)cc2)c2n(c1C(=O)C(=O)NC1(c3nncs3)CC(F)(F)C1)CCC2 [Example 8]",
    "measurementName": "log10(solubility kinetic)",
    "recordedResult": 1.02
  }
]

---

Assay: Kinetic Solubility
Format: physicochemical
Conditions: aqueous buffer, kinetic from dmso stock; pH = 7; 0.2 to 100 μM; BD Gentest Solubility Scanner; read-out: Kinetic Solubility at pH = 7
Protocol: The 10 mM DMSO stock solution of the test compound is serially diluted into a 96-well “DMSO stock dilution plate”. Then Pipette 2 μL from the DMSO stock dilution plate into the “Sample plate” and dilute with 198 µL of the assay media to generate the final concentrations of the test compound ranging from 0.2 to 100 μM. The “Sample plate” is run on a BD Gentest Solubility Scanner.

[
  {
    "smilesString": "Cc1c(C(=O)Nc2ccc(F)c(C(F)F)c2)c2n(c1C(=O)C(=O)NC1(c3nncs3)CC1)CCC2",
    "limitQualifier": "=",
    "solubility kinetic (µM)": 6.3
  },
  {
    "smilesString": "Cc1c(C(=O)Nc2ccc(F)cc2)c2n(c1C(=O)C(=O)NC1(c3nncs3)CC(F)(F)C1)CCC2",
    "limitQualifier": "=",
    "solubility kinetic (µM)": 3.9
  },
  {
    "smilesString": "CNC(=O)C1(NC(=O)C(=O)c2c(C)c(C(=O)Nc3ccc(F)c(F)c3)c3n2C[C@H]2C[C@@H]32)CC(F)(F)C1",
    "limitQualifier": ">",
    "solubility kinetic (µM)": 100
  },
  {
    "smilesString": "CNC(=O)C1(NC(=O)C(=O)c2c(C)c(C(=O)Nc3ccc(F)c(Cl)c3)c3n2CCC3)CC(F)(F)C1",
    "limitQualifier": "=",
    "solubility kinetic (µM)": 3.4
  },
  {
    "smilesString": "Cc1c(C(=O)Nc2ccc(F)c(C#N)c2)c2n(c1C(=O)C(=O)NC1(c3cnn[nH]3)CC(F)(F)C1)CCC2",
    "limitQualifier": "=",
    "solubility kinetic (µM)": 13.9
  },
  {
    "smilesString": "Cc1c(C(=O)Nc2ccc(F)c(F)c2)c2n(c1C(=O)C(=O)NC1(CO)CC(F)(F)C1)CCC2",
    "limitQualifier": "=",
    "solubility kinetic (µM)": 62
  },
  {
    "smilesString": "Cc1c(C(=O)Nc2ccc(F)c(F)c2)c2n(c1C(=O)C(=O)NC1(c3c[nH]nn3)CC(F)(F)C1)CCC2",
    "limitQualifier": "=",
    "solubility kinetic (µM)": 66.8
  }
]
